Target: HLA-B*18:01
Test: IEDB peptide-MHC binding, purified MHC/competitive/fluorescence; filed as Kd, often an IC50 or EC50 that approximates it; bounds were set here for any values at or beyond the usual limits of such assays
Conditions: source organism: Orthohantavirus sinnombreense
ENDPOINT LABEL: Kd

Form: sequence = HTVGLGQGY ; Kd = ≥ 20 µM

----------
Target: HLA-B*35:01
Test: IEDB peptide-MHC binding, purified MHC/competitive/fluorescence; filed as Kd, often an IC50 or EC50 that approximates it; bounds were set here for any values at or beyond the usual limits of such assays
Settings: source organism: Vaccinia virus WR
Readings of Kd for the listed sequences
Write down the numeric answer in µM and omit the unit.

Per the records, this sequence ( KVFDKSLLY ) has Kd equal to 0.0082

---
Record summary for TESDAIRTL : reported Kd = 3.71

----------
Molecular target: HLA-A*03:01
Test: IEDB peptide-MHC binding, purified MHC/direct/fluorescence; filed as Kd, often an IC50 or EC50 that approximates it; bounds were set here for any values at or beyond the usual limits of such assays
Details: source organism: Brucella abortus 2308
ENDPOINT LABEL: Kd

GET /values?item= TPPVDRMAV &system= HLA-A*03:01 returns Kd: ≥ 20 µM

----------
Target: HLA-A*26:01
Assay: IEDB peptide-MHC binding, purified MHC/competitive/fluorescence; filed as Kd, often an IC50 or EC50 that approximates it; bounds were set here for any values at or beyond the usual limits of such assays
Details: source organism: Rickettsia akari str. Hartford
ENDPOINT LABEL: Kd

Log: HLA-A*26:01, sequence FTARIIIFS , Kd = ≥ 20 µM

----------
Target: HLA-A*29:02
Experiment: IEDB peptide-MHC binding, purified MHC/competitive/fluorescence; filed as Kd, often an IC50 or EC50 that approximates it; bounds were set here for any values at or beyond the usual limits of such assays
Settings: source organism: Clostridium botulinum E3 str. Alaska E43
ENDPOINT LABEL: Kd (nM)
The answer is to be given in nM; state only the numeric part.

Sure, the documented Kd for GIWHGPYWH is 231

----------
Molecular target: HLA-B*44:02
Assay: IEDB peptide-MHC binding, purified MHC/direct/fluorescence; filed as Kd, often an IC50 or EC50 that approximates it; bounds were set here for any values at or beyond the usual limits of such assays
Settings: source organism: Influenza A virus (A/turkey/Minnesota/1200/1980(H7N3))
ENDPOINT LABEL: Kd

Measured Kd of VTTEVAFGL : ≥ 20 µM

----------
Target: HLA-A*29:02
Assay: IEDB peptide-MHC binding, purified MHC/competitive/radioactivity; filed as Kd, often an IC50 or EC50 that approximates it; bounds were set here for any values at or beyond the usual limits of such assays
Details: source organism: SARS coronavirus Tor2
Attribute: Kd
Please reply with the bare figure in nM and do not write the unit itself.

Field Kd (HLA-A*29:02), entry EYADVFHLYL : 160

---
Sample LTQDLFLPFY , system: HLA-A*29:02. Its Kd is 53.5

Response field Kd (HLA-A*29:02) for item ATEETFKLSY : 224

// sequence CTPPALNCY , assay HLA-A*29:02, Kd value: 1300

Response field Kd (HLA-A*29:02) for item MMSAPPAEY : 1.23

Measured Kd for this entry YTGNYQCGHY on HLA-A*29:02: 22.5

Tested system HLA-A*29:02; Kd recorded for YYQLESTQI was 247

Kd for HLA-A*29:02 with input EIEPKLDGYY equals 7390

Note to self: Kd of LSNFGAPSY with HLA-A*29:02 was 13.9

// assay HLA-A*29:02, entry LTKGTLEPEY , Kd value = 2050

# HSVGFDYVY with HLA-A*29:02: Kd is 157

----------
Molecular target: HLA-A*03:01
Assay: IEDB peptide-MHC binding, purified MHC/direct/fluorescence; filed as Kd, often an IC50 or EC50 that approximates it; bounds were set here for any values at or beyond the usual limits of such assays
Conditions: source organism: Pseudomonas aeruginosa
ENDPOINT LABEL: Kd (µM)
Field: numeric (µM). Do not append units.

Measured on HLA-A*03:01, RDYRTISPR has a documented Kd of 3.44

----------
Target: HLA-A*02:16
Experiment: IEDB peptide-MHC binding, purified MHC/direct/fluorescence; filed as Kd, often an IC50 or EC50 that approximates it; bounds were set here for any values at or beyond the usual limits of such assays
Conditions: source organism: Ravn virus - Ravn, Kenya, 1987
ENDPOINT LABEL: Kd

HSGFIYFGK yielded Kd of ≥ 20 µM

----------
Molecular target: HLA-B*51:01
Assay: IEDB peptide-MHC binding, purified MHC/competitive/fluorescence; filed as Kd, often an IC50 or EC50 that approximates it; bounds were set here for any values at or beyond the usual limits of such assays
Conditions: source organism: Orthohantavirus tulaense
pKd: −log10 of the molar value.
ENDPOINT LABEL: pKd

Query FMFNELLAL yields pKd of ≤ 4.70

----------
Biological target: HLA-A*03:01
Experiment: IEDB peptide-MHC binding, purified MHC/direct/fluorescence; filed as Kd, often an IC50 or EC50 that approximates it; bounds were set here for any values at or beyond the usual limits of such assays
Conditions: source organism: Influenza A virus (A/turkey/Minnesota/1200/1980(H7N3))
ENDPOINT LABEL: Kd

Sample VTTEVAFGL ; Kd observed: ≥ 20 µM

----------
Target: HLA-A*02:01
Assay: IEDB peptide-MHC binding, purified MHC/competitive/fluorescence; filed as Kd, often an IC50 or EC50 that approximates it; bounds were set here for any values at or beyond the usual limits of such assays
Details: source organism: Salmonella enterica subsp. enterica serovar Choleraesuis str. SC-B67
ENDPOINT LABEL: Kd (nM)
Output spec: scalar in nM, unitless text.

// GIALAVPCV : Kd value = 0.7

----------
Target: HLA-A*02:01
Assay: IEDB peptide-MHC binding, purified MHC/direct/fluorescence; filed as Kd, often an IC50 or EC50 that approximates it; bounds were set here for any values at or beyond the usual limits of such assays
Settings: source organism: Influenza A virus (A/turkey/Canada-Ontario/NS-01839-1/05(H3))
ENDPOINT LABEL: Kd (nM)
Could you give me the number in nM? Just the number is fine.

Looking up ILDGKNCTL , I found its Kd recorded as 95.1

----------
Target: HLA-B*07:02
Experiment: IEDB peptide-MHC binding, purified MHC/direct/fluorescence; filed as Kd, often an IC50 or EC50 that approximates it; bounds were set here for any values at or beyond the usual limits of such assays
Settings: source organism: Pseudomonas aeruginosa UCBPP-PA14
pKd: −log10 of the molar value.
The entries below come with measured pKd values attached.

Looking up ANPGRVKDW , I see its pKd listed as ≤ 4.70

Below: the item to evaluate.
Notebook: RDYRTISPR , pKd read as ≤ 4.70

----------
Molecular target: HLA-B*51:01
Assay: IEDB peptide-MHC binding, purified MHC/competitive/radioactivity; filed as Kd, often an IC50 or EC50 that approximates it; bounds were set here for any values at or beyond the usual limits of such assays
Details: source organism: Triticum aestivum
This listing pairs sequences with measured Kd.
Be sure to follow the number with its unit.

QPLQQYPL has a reported Kd of 1450 nM

Then there is this sequence:
response.value for FPQPQLPY (field: Kd) = 20.4 nM

----------
Target: HLA-B*57:01
Assay: IEDB peptide-MHC binding, purified MHC/direct/fluorescence; filed as Kd, often an IC50 or EC50 that approximates it; bounds were set here for any values at or beyond the usual limits of such assays
Conditions: source organism: Yersinia pestis CA88-4125
pKd: −log10 of the molar value.
ENDPOINT LABEL: pKd

QQRPDLILV yielded pKd of ≤ 4.70

----------
Recorded pKd for the following sequences
Target: HLA-A*11:01
Assay: IEDB peptide-MHC binding, purified MHC/direct/fluorescence; filed as Kd, often an IC50 or EC50 that approximates it; bounds were set here for any values at or beyond the usual limits of such assays
Conditions: source organism: SARS-CoV1
Reminder that pKd means the negative base-10 logarithm of the concentration expressed in mol/L.

The value of pKd measured for the sequence NPKTPKYKF turned out to be 5.40

Consider the record given below.
// sample KRVDWSVEY , its pKd was 5.06

----------
Target: HLA-A*31:01
Assay: IEDB peptide-MHC binding, purified MHC/competitive/fluorescence; bounds were set here for any values at or beyond the usual limits of such assays
Details: source organism: Homo sapiens
pIC50: −log10 of the molar value.
ENDPOINT LABEL: pIC50

HLA-A*31:01 pIC50 of YFYYNAFHWAI is ≤ 4.70

----------
Target: HLA-A*29:02
Test: IEDB peptide-MHC binding, purified MHC/direct/fluorescence; filed as Kd, often an IC50 or EC50 that approximates it; bounds were set here for any values at or beyond the usual limits of such assays
Conditions: source organism: Ebola virus Yambio0403
ENDPOINT LABEL: Kd

The sequence listed as RYEFTAPFI shows Kd equal to ≥ 20 µM
